B1: glmS ribozyme (parent)
chain: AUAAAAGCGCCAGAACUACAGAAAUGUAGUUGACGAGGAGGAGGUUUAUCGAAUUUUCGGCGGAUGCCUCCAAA

variants of: B1; experiment: self-cleavage kobs at 2500 uM GlcN6P; higher = faster cleavage; RNA array; settings: with glucosamine-6-phosphate
Variants at the floor of the assay were thinned out.
assay endpoint: self-cleavage kobs at 2500 uM GlcN6P

mutation list	self-cleavage kobs at 2500 uM GlcN6P
A6G G13C U65A U69C	< 1e-05 s⁻¹
A12G A53G	0.000633 s⁻¹
G32C G35U	< 1e-05 s⁻¹
A6G G40A C67U	< 1e-05 s⁻¹
A6U G40C G44C C50U	< 1e-05 s⁻¹

Each variant below has a recorded value; state its self-cleavage kobs at 2500 uM GlcN6P.
1. C10U C11A C70A
2. C50A C68G
3. G9C C11A G63C
4. G7C C71G
5. G29C G40C U54A

A:
7.8e-05 s⁻¹
5.89e-05 s⁻¹
< 1e-05 s⁻¹
< 1e-05 s⁻¹
6.31e-05 s⁻¹

Q: Tell me the measured self-cleavage kobs at 2500 uM GlcN6P of G7C U45A , please.
A: < 1e-05 s⁻¹
